Source listed as ChEMBL document CHEMBL5033993.

target: Programmed cell death protein 1/Programmed cell death 1 ligand 1 (Homo sapiens, UniProt Q15116+Q9NZQ7)
Sequence (Q15116 whole entry): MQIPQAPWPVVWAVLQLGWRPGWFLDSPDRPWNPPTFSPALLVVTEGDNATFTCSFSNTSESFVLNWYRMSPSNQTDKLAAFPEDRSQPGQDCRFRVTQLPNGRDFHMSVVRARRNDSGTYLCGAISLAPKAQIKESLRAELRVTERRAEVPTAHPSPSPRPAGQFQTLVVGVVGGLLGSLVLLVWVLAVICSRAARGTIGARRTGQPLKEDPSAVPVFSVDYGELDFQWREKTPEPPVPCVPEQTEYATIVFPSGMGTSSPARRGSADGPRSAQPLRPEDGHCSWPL
Sequence (Q9NZQ7 whole entry): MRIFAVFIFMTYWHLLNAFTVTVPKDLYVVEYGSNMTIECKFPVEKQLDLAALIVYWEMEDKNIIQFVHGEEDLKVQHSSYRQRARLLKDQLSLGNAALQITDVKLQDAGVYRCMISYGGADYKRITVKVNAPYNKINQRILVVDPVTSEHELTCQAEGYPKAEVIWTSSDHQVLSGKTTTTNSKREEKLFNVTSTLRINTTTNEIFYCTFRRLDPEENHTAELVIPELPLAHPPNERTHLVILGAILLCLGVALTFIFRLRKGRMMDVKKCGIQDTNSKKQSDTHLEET
method: Inhibition of human PD-1/PD-L1 interaction assessed as disruption of PD-1/PD-L1 complex incubated for 2 hrs by Tag-1 Eu3+ and anti-Tag2-XL665 based HTRF assay
Item-by-item account of log10 IC50
Kindly note that the scale is log10 and the underlying IC50 is in nM.

Solved cases (5 shown):
Cc1c(COc2ccc(CN[C@H](C(=O)O)[C@@H](C)O)cc2[N+](=O)[O-])cccc1-c1ccccc1 = 1.79
Cc1c(COc2ccc(CN3CCC[C@H]3C(=O)N[C@@H](C)CO)cc2[N+](=O)[O-])cccc1-c1ccccc1 = 1.79
Cc1c(COc2ccc(CNC(C)(CO)CO)cc2[N+](=O)[O-])cccc1-c1ccccc1 = 1.96
Cc1c(COc2cc(OCc3cccc(C#N)c3)c(CNCCO)cc2[N+](=O)[O-])cccc1-c1ccccc1 = 0.56
Cc1c(COc2ccc(CNCC(C)(C)O)cc2[N+](=O)[O-])cccc1-c1ccccc1 = 1.67

### Prompt Query (molecule): `Cc1c(COc2cc(OCc3cccc(C#N)c3)c(CN3CCCC[C@H]3C(=O)N3CCC[C@H]3C(=O)O)cc2[N+](=O)[O-])cccc1-c1ccccc1` ; field requested: log10 IC50
### Response 0.63

### Prompt Query (molecule): `CCC(CO)(CO)NC(=O)[C@@H]1CCCN1Cc1ccc(OCc2cccc(-c3ccccc3)c2C)c([N+](=O)[O-])c1` ; field requested: log10 IC50
### Response 1.92

### Prompt Query (molecule): `Cc1c(COc2cc(OCc3cccc(C#N)c3)c(CN3CCCC[C@H]3C(=O)O)cc2[N+](=O)[O-])cccc1-c1ccccc1` ; field requested: log10 IC50
### Response 0.75
